System: OVCAR-4
Experimental Protocol: NCI tumour cell line growth inhibition, 48 h
Active and inactive are the calls of the source. Cut-off read from the data, not from the text of the source: active = GI50 up to about 1.1 µM and inactive = higher.
Listed here: items and their measured GI50.

Consider the worked cases shown below.
Compound	Assay Target	GI50
N/N=C1\CCCc2c1no[n+]2[O-]	OVCAR-4	> 100 µM (inactive)
COc1ccc(C(=O)C(C(=O)C(=O)Nc2ccc(Cl)c(Cl)c2)c2ccc(OC)cc2)cc1 (stereo unspecified)	OVCAR-4	> 100 µM (inactive)

Task: Please provide the recorded GI50 for C[C@@H]1C(=O)O[C@H]1[C@H](O)CO , tested on OVCAR-4.
Result: > 100 µM (inactive)

Task: Please provide the recorded GI50 for C/C(=N\Nc1cc(CN2CCCC2)c(-c2ccc(Cl)cc2)nn1)C(=O)O , tested on OVCAR-4.
Result: > 100 µM (inactive)

Task: Please provide the recorded GI50 for NNC(=O)CCC(NS(=O)(=O)c1ccc(Cl)cc1)C(=O)NN (stereo unspecified) , tested on OVCAR-4.
Result: > 100 µM (inactive)

Task: Please provide the recorded GI50 for NS(=O)(=O)c1nnc(NSc2ccc([N+](=O)[O-])cc2)s1 , tested on OVCAR-4.
Result: 48.9 µM (inactive)
